system: Mycobacterium tuberculosis Erdman (autoluminescent); assay: Einf, fitted maximum growth inhibition of three-drug combination (fraction); higher = stronger maximal inhibition; details: in vitro model: dormancy (butyrate + nitrate, low O2); time point: terminal (~4-5 doublings, model-specific)
observable: Einf
Could you respond with only the numeric value?

- molecule: "NNC(=O)c1ccncc1 [isoniazid] + CO[C@H]1/C=C/O[C@@]2(C)Oc3c(C)c(O)c4c(O)c(c(/C=N/N5CCN(C6CCCC6)CC5)c(O)c4c3C2=O)NC(=O)/C(C)=C\\C=C\\[C@H](C)[C@H](O)[C@@H](C)[C@@H](O)[C@@H](C)[C@H](OC(C)=O)[C@@H]1C [rifapentine] + CO[C@H]1/C=C/O[C@@]2(C)Oc3c(C)c(O)c4c(O)c(c(/C=N/N5CCN(C)CC5)c(O)c4c3C2=O)NC(=O)/C(C)=C\\C=C\\[C@H](C)[C@H](O)[C@@H](C)[C@@H](O)[C@@H](C)[C@H](OC(C)=O)[C@@H]1C [rifampicin]"
  observable: "Einf"
  endpointResult: 0.984
- molecule: "CC[C@@H](CO)NCCN[C@@H](CC)CO [ethambutol] + O=[N+]([O-])c1cn2c(n1)OC[C@@H](OCc1ccc(OC(F)(F)F)cc1)C2 [pretomanid] + CO[C@H]1/C=C/O[C@@]2(C)Oc3c(C)c(O)c4c(O)c(c(/C=N/N5CCN(C6CCCC6)CC5)c(O)c4c3C2=O)NC(=O)/C(C)=C\\C=C\\[C@H](C)[C@H](O)[C@@H](C)[C@@H](O)[C@@H](C)[C@H](OC(C)=O)[C@@H]1C [rifapentine]"
  observable: "Einf"
  endpointResult: 0.964
- molecule: "COc1nc2ccc(Br)cc2cc1[C@@H](c1ccccc1)[C@@](O)(CCN(C)C)c1cccc2ccccc12 [bedaquiline] + COc1c(N2C[C@@H]3CCCN[C@@H]3C2)c(F)cc2c(=O)c(C(=O)O)cn(C3CC3)c12 [moxifloxacin] + NC(=O)c1cnccn1 [pyrazinamide]"
  observable: "Einf"
  endpointResult: 0.987
- molecule: "COc1nc2ccc(Br)cc2cc1[C@@H](c1ccccc1)[C@@](O)(CCN(C)C)c1cccc2ccccc12 [bedaquiline] + CC[C@@H](CO)NCCN[C@@H](CC)CO [ethambutol] + CO[C@H]1/C=C/O[C@@]2(C)Oc3c(C)c(O)c4c(O)c(c(/C=N/N5CCN(C)CC5)c(O)c4c3C2=O)NC(=O)/C(C)=C\\C=C\\[C@H](C)[C@H](O)[C@@H](C)[C@@H](O)[C@@H](C)[C@H](OC(C)=O)[C@@H]1C [rifampicin]"
  observable: "Einf"
  endpointResult: 0.985

// switching to the query molecule
Task: Consider the molecule shown here: CC(C)/N=c1\cc2n(-c3ccc(Cl)cc3)c3ccccc3nc-2cc1Nc1ccc(Cl)cc1 [clofazimine] + NC(=O)c1cnccn1 [pyrazinamide] + CO[C@H]1/C=C/O[C@@]2(C)Oc3c(C)c(O)c4c(O)c(c(/C=N/N5CCN(C)CC5)c(O)c4c3C2=O)NC(=O)/C(C)=C\C=C\[C@H](C)[C@H](O)[C@@H](C)[C@@H](O)[C@@H](C)[C@H](OC(C)=O)[C@@H]1C [rifampicin] What is its recorded Einf?
Result: 0.994

* * *

A collection of compounds and their measured total FIC90
tested on: Mycobacterium tuberculosis Erdman (autoluminescent); experiment: total FIC90 (Loewe) at 90% inhibition, three-drug combination (log2); higher = more antagonistic; settings: in vitro model: cholesterol-high 0.2 mM; time point: constant (~7 days, model-specific)
Enter a number only.

In the examples that follow, each entry is paired with its recorded total FIC90.
- compound: "CC(C)/N=c1\\cc2n(-c3ccc(Cl)cc3)c3ccccc3nc-2cc1Nc1ccc(Cl)cc1 [clofazimine] + CC(=O)NC[C@H]1CN(c2ccc(N3CCOCC3)c(F)c2)C(=O)O1 [linezolid] + CO[C@H]1/C=C/O[C@@]2(C)Oc3c(C)c(O)c4c(O)c(c(/C=N/N5CCN(C)CC5)c(O)c4c3C2=O)NC(=O)/C(C)=C\\C=C\\[C@H](C)[C@H](O)[C@@H](C)[C@@H](O)[C@@H](C)[C@H](OC(C)=O)[C@@H]1C [rifampicin]"
  total FIC90: 0.45
- compound: "CC(C)/N=c1\\cc2n(-c3ccc(Cl)cc3)c3ccccc3nc-2cc1Nc1ccc(Cl)cc1 [clofazimine] + COc1c(N2C[C@@H]3CCCN[C@@H]3C2)c(F)cc2c(=O)c(C(=O)O)cn(C3CC3)c12 [moxifloxacin] + CO[C@H]1/C=C/O[C@@]2(C)Oc3c(C)c(O)c4c(O)c(c(/C=N/N5CCN(C)CC5)c(O)c4c3C2=O)NC(=O)/C(C)=C\\C=C\\[C@H](C)[C@H](O)[C@@H](C)[C@@H](O)[C@@H](C)[C@H](OC(C)=O)[C@@H]1C [rifampicin]"
  total FIC90: 1.19
- compound: "COc1nc2ccc(Br)cc2cc1[C@@H](c1ccccc1)[C@@](O)(CCN(C)C)c1cccc2ccccc12 [bedaquiline] + CC(C)/N=c1\\cc2n(-c3ccc(Cl)cc3)c3ccccc3nc-2cc1Nc1ccc(Cl)cc1 [clofazimine] + CC(=O)NC[C@H]1CN(c2ccc(N3CCOCC3)c(F)c2)C(=O)O1 [linezolid]"
  total FIC90: -0.594

Alright, here's another compound for you.
Task: Given the entry COc1nc2ccc(Br)cc2cc1[C@@H](c1ccccc1)[C@@](O)(CCN(C)C)c1cccc2ccccc12 [bedaquiline] + CC(=O)NC[C@H]1CN(c2ccc(N3CCOCC3)c(F)c2)C(=O)O1 [linezolid] + CO[C@H]1/C=C/O[C@@]2(C)Oc3c(C)c(O)c4c(O)c(c(/C=N/N5CCN(C)CC5)c(O)c4c3C2=O)NC(=O)/C(C)=C\C=C\[C@H](C)[C@H](O)[C@@H](C)[C@@H](O)[C@@H](C)[C@H](OC(C)=O)[C@@H]1C [rifampicin] , what total FIC90 was observed with Mycobacterium tuberculosis Erdman (autoluminescent)?
Result: 0.612
